These data points were gathered from PubChem BioAssay (NCI).

I'd be grateful if you could share measured TGI for these entries.
- System: U251 CNS
- protocol: NCI tumour cell line growth inhibition, 48 h

Given the compound COc1ccc(-c2cc(-c3cc(C)ccc3O)[nH]c(=O)n2)cc1 and test system U251 CNS, the measured TGI is > 100 µM

So the reported TGI for CN(C)C(=S)N/N=C(\C(=N/NC(=S)N(C)C)c1ccccn1)c1ccccn1 , on U251 CNS, turned out to be 20.4 µM

Lab note: compound C/C(=N\Nc1nc2ccccc2s1)c1cnccn1 tested on U251 CNS; recorded TGI was > 100 µM

Reported TGI (U251 CNS) for entry Cc1ccc2[nH]c3c(c2c1)CCC/C3=N/N=C(N)N is 4.72 µM

Form field TGI for item CC(=O)C1=C(C)N2C(=NC3=C(CCc4ccccc43)C2c2cccc(Br)c2)S1 (configuration not stated) on U251 CNS: > 100 µM

Record NC1=CC(=O)c2nc3ccccc3c3ccnc1c23 / U251 CNS, TGI recorded as > 45.2 µM

Per the reported U251 CNS data, CCOC(=O)N1CCN(c2nc(C)n(-c3ccccc3)c(=S)c2C#N)CC1 has TGI of > 100 µM

I looked up Nc1ncnc2c1ncn2C1C=CC(COS(N)(=O)=O)C1 (configuration not stated) and its TGI for U251 CNS was > 100 µM

For the compound COc1ccc2oc(=O)c(-c3nc4ccccc4o3)cc2c1 , the measured TGI on U251 CNS was > 100 µM

Per the reported U251 CNS data, CC1OC(n2c3ccccc3c3c4c(c5c6ccccc6[nH]c5c32)C(=O)N(CCN2CCOCC2)C4=O)CC(O)C1O (configuration not stated) has TGI of 7.19 µM

Item: Cc1cc(=O)oc2c(OS(C)(=O)=O)c(OS(C)(=O)=O)ccc12 | System: U251 CNS | TGI: > 100 µM

U251 CNS assay, compound COc1ccccc1/C=C/c1c(N)ncnc1Nc1cccc(Cl)c1 , recorded TGI = 34.4 µM

Field TGI (system: U251 CNS) for entry Cc1c(-c2nnc(-c3ccc(F)cc3)o2)nnn1-c1ccnc2c(C(F)(F)F)cccc12 = > 100 µM

Assay U251 CNS, sample Cn1c(=O)n2c(-c3ccccc3)c(-c3ccccc3)n2c1=O , TGI read: > 100 µM

Form field TGI for item CO/N=C(\C(=O)Nc1cncs1)c1csc(N)n1 on U251 CNS: > 10 µM

The value of TGI recorded for OCC1OC2OC3C(CO)OC(OC4C(CO)OC(OC5C(CO)OC(OC6C(CO)OC(OC7C(CO)OC(OC1C(O)C2O)C(O)C7O)C(O)C6O)C(O)C5O)C(O)C4O)C(O)C3O (configuration not stated) (tested in a mixture with another compound) when tested on U251 CNS reads > 100 µM

Field TGI (U251 CNS), entry COC(=O)c1cnn2c1ccc1ccccc12 : > 100 µM

Bench note, U251 CNS: CS/C(=N\S(=O)(=O)c1cc(C)c(Cl)cc1Cl)NNc1cnc2ccccc2n1 , TGI reads > 100 µM

TGI of CCCC(=O)NC(C(=O)OCC)(N1CCOCC1)C(F)(F)F (configuration not stated) , assay on U251 CNS, is > 100 µM

Fill in: U251 CNS TGI for CCn1c(-c2nonc2N)nc2cncc(C(=O)NCCNC)c21 = > 25 µM

# lookup: COC(=O)C1(Cc2cccc(C)c2)Cc2c(C)cccc2C1=O (configuration not stated) on U251 CNS, TGI = > 100 µM

Tested on U251 CNS, the item CCCC1=C(C(=O)OCC)C(c2ccccc2OC)C(C#N)=C(N)O1 (configuration not stated) showed TGI equal to > 100 µM
